experiment: Carrier properties: solubility; type: physicochemical; settings: soluble at pH = 8.28
outcome.measure: solubility (mg/mL)

compound: O=C(O)CCCCCCCC(=O)Nc1cc(Cl)ccc1O [Compound 3]
reading.unit: mg/mL
recorded.number: 200

----------
assay: Carrier properties: solubility; type: physicochemical; settings: pH 8.44

record.smiles: Nc1ccc(F)cc1C(=O)Nc1ccc(CCCC(=O)O)cc1
solubility / mg/mL: 200

----------
test: Carrier properties: solubility; format: physicochemical; conditions: pH 8.7
outcome.measure: solubility (mg/mL)

compound: Nc1ccc(F)cc1C(=O)NCCCCCCCC(=O)O [Compound 1]
reading.unit: mg/mL
recorded.number: 200
